target: Histamine H3 receptor (Homo sapiens, UniProt Q9Y5N1); assay: Binding affinity to human histamine H3 receptor
Sequence (Q9Y5N1 whole entry): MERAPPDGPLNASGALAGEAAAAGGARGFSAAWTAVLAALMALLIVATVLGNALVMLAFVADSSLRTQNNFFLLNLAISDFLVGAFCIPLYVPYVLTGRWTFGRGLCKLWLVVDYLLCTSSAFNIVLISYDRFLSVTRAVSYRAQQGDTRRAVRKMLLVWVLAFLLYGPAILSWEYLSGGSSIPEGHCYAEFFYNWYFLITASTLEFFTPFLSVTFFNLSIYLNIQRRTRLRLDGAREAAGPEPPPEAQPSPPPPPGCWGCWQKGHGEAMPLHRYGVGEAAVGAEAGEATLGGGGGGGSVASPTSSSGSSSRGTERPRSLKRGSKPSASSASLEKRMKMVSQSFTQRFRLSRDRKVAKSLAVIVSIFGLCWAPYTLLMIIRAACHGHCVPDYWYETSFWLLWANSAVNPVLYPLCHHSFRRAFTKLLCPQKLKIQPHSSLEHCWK
Kindly supply the reported pKi values for the records listed here.
Remember the convention: pKi equals -log10 of concentration in molar.

Supply measured pKi of CN(C)[C@@H]1CCN(c2cc(NCC(C)(C)C)ncn2)C1 in your reply. 7.27

Supply measured pKi of CN1CCN(c2cc(NCC(C)(C)C)ncn2)CC1 in your reply. 6.08

###

assay: Metabolic stability in human liver microsomes; assay type: ADME, Microsome; conditions: read-out: Stability
outcome measure: microsomal CLint (µL/min/mg)
State just the number; it will be interpreted in µL/min/mg.

Supply measured microsomal CLint of CN1CCN(c2cc(NCCC(C)(C)C)ncn2)CC1 in your reply. 16

###

target: Histamine H4 receptor (Homo sapiens, UniProt Q9H3N8); experiment: Antagonist activity at human histamine H4 receptor at 15 uM by functional assay; design: scale not given: the % may be the effect or the level left
Sequence (Q9H3N8 whole entry): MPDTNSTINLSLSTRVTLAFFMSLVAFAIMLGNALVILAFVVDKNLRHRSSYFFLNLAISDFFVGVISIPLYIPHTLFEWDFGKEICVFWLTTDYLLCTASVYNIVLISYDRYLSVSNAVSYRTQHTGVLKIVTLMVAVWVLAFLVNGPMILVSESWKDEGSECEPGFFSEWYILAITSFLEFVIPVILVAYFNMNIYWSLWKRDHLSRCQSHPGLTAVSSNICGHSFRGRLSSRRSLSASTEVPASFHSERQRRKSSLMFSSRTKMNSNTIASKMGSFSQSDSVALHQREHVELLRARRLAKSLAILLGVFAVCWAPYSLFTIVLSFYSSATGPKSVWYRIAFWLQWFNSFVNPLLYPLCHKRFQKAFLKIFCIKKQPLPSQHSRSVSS
Kindly supply the reported Activity values for the records listed here.
State just the number; it will be interpreted in %.

Supply measured Activity of COc1ccccc1Cn1ccc(NCCc2cnc[nH]2)nc1=O in your reply. 65

Supply measured Activity of CN1CCN(c2cc(C(=O)NCc3cccc(C(F)(F)F)c3)ncn2)CC1 in your reply. 57

Supply measured Activity of CC(C)(C)CCNc1cc(NC2CCN(Cc3ccc(CO)o3)C2)ncn1 (centres undefined) in your reply. 73

Supply measured Activity of COc1cccc(C(O)(COc2ccccc2C)CN2CCN(C)CC2)c1 (centres undefined) in your reply. 60

###

biological target: Histamine H3 receptor (Homo sapiens); test: Binding affinity to histamine H3 receptor
outcome measure: Ki
# output: number + unit

Supply measured Ki of CN1CCN(c2cc(NCCC(C)(C)C)ncn2)CC1 in your reply. 646 nM

###

assay: Distribution coefficient, log D of the compound at pH 7.4; assay type: physicochemical; details: octanol/water
For each record, check the reported logD: if it is below 1 write T, else write F.

Bench note: check whether CC(C)(C)CCNc1cc(N2CCN(C3CCCCC3)CC2)ncn1 shows logD below 1 F

Bench note: check whether CN1CCN(c2cc(NCC(C)(C)C)ncn2)CC1 shows logD below 1 F

Bench note: check whether CN1CCCN(c2cc(NCC(C)(C)C)ncn2)CC1 shows logD below 1 T

Bench note: check whether CN(C)[C@@H]1CCN(c2cc(NCC(C)(C)C)ncn2)C1 shows logD below 1 F

Bench note: check whether CC(C)(C)CCNc1cc(N[C@H]2CCNC2)ncn1 shows logD below 1 T

Bench note: check whether CC(C)(C)CCNc1cc(N2CCNCC2)ncn1 shows logD below 1 F

Bench note: check whether CN1CCN(c2cc(NCCC(C)(C)C)ncn2)CC1 shows logD below 1 F

Bench note: check whether CN1CCN(c2cnc3ccccc3n2)CC1 shows logD below 1 F

Bench note: check whether Cc1ccc(C#N)c(N2CC3CN(C)CC3C2)n1 (centres undefined) shows logD below 1 T

###

experiment: Metabolic stability in rat liver microsomes; type: ADME, Microsome; conditions: read-out: Stability
outcome measure: microsomal CLint (µL/min/mg)
State just the number; it will be interpreted in µL/min/mg.

Supply measured microsomal CLint of CN1CCN(c2cc(NCCC(C)(C)C)ncn2)CC1 in your reply. 147

###

target: Histamine H4 receptor (Homo sapiens); experiment: Displacement of [3H]histamine from human histamine H4 receptor expressed in CHO cells after 90 mins by scintillation counting technique; assay type: cell-based
Kindly supply the reported log10 Ki values for the records listed here.
Transform log10 | Measure Ki | Unit nM

Supply measured log10 Ki of CC(C)(C)CCNc1cc(NC2CCN(Cc3ccc(CO)o3)C2)ncn1 (configuration not stated) in your reply. 3.32

Supply measured log10 Ki of CN1CCN(C(=O)c2nc3cc(Cl)ccc3[nH]2)CC1 in your reply. 1.68

Supply measured log10 Ki of CN1CCN(c2cc(NC3Cc4ccccc4C3)ncn2)CC1 in your reply. 2.33

Supply measured log10 Ki of COc1ccccc1Cn1ccc(NCCc2cnc[nH]2)nc1=O in your reply. 3.20

Supply measured log10 Ki of Cc1ccc(C#N)c(N2CC3CN(C)CC3C2)n1 (configuration not stated) in your reply. 2.97

Supply measured log10 Ki of CC(C)(C)CCNc1cc(N2CCN(C3CCCCC3)CC2)ncn1 in your reply. 2.78

Supply measured log10 Ki of CN1CCN(c2cc(N3[C@@H]4CCC[C@@H]3C4)ncn2)CC1 in your reply. 2.93

Supply measured log10 Ki of COc1cccc(C(O)(COc2ccccc2C)CN2CCN(C)CC2)c1 (configuration not stated) in your reply. 3.51

Supply measured log10 Ki of CN1CC[C@H](Nc2cc(NCCC(C)(C)C)ncn2)C1 in your reply. 2.77

Supply measured log10 Ki of CN1CCN(c2cc(C(=O)NCc3cccc(C(F)(F)F)c3)ncn2)CC1 in your reply. 4.54

Supply measured log10 Ki of CN1CCN(c2cnc3ccccc3n2)CC1 in your reply. 3.03

Supply measured log10 Ki of CN1CCN(c2cc(NCc3ccccc3)ncn2)CC1 in your reply. 2.32
